This collection of values is drawn from patent US10428140B2.

- System Under Test: T1, human EphA4 (Homo sapiens, UniProt P54764)
- T1 construct: made in house; not restated for the human SEAP-His protein
- T1 sequence (P54764 20-547): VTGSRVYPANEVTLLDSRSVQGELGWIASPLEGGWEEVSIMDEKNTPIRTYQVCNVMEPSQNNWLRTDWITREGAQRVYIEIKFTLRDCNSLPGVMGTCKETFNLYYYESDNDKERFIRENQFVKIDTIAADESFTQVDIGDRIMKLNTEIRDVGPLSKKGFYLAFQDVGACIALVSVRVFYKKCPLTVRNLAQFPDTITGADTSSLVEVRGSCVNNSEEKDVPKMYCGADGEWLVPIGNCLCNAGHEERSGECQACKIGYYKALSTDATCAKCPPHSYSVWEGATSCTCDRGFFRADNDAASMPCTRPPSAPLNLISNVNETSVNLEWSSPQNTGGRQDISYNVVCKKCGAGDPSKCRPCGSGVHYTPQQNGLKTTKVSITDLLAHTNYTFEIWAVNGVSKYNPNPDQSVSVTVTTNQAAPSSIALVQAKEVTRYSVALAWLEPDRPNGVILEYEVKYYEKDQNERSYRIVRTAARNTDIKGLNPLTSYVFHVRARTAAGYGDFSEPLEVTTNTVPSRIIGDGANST
- Assay Overview: Affinity of humanized antibodies by SPR (Biacore T200)
- Format: binding
- Details: human EphA4 extracellular region-SEAP-His; KD=kd/ka
Property Measured: pKd
Please report pKd as the negative decimal logarithm of the molar concentration, giving only the number.

Param item = 145 (antibody, V domains shown, synthetic humanized antibody heavy chain variable region sequence; synthetic humanized antibody light chain variable region sequence) VH: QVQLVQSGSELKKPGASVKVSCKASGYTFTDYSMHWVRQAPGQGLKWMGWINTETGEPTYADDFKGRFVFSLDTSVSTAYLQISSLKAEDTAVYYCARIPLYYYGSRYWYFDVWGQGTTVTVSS VL: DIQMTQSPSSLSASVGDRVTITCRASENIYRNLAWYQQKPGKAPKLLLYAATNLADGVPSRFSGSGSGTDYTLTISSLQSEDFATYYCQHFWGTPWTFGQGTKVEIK ; retrieve measured pKd. 8.70
